Assay: yeast display, Sf9 membrane polyspecificity reagent, FACS + sequencing; frameworks hold sequencing errors
QUANTITY_NAME: polyreactivity (PSR sort gate)

RECORD_SEQUENCE	ENDPOINT_RESULT
QVQLVESGGGLVQAGGSLRLSCAASGLIFYYYAMGWYRQAPGKEREFVAAISRRGGSTYYADSVKGRFTISRDNAKNTVYLHMNSLKPEDTAVYYCAAKSGSFVHGGYQTPVYGSDYWGQGTQVTVSS	high polyreactivity
QVQLEESGGGLVQAGGSLRLSCAASGSIIAGYAMGWYRQAPGKERELVAAISQRGTSTYYADSVKGRFTISRDNAKNTVYLQMNSLKPEDTAVYYCAARVVSRMDYWGQGTQVTVSS	high polyreactivity
QVQLQERGGGLVQAGGSLRQSCAAIGYIFPYYSMGWYRQATGKERGLVACIAAGTTTNYADSVKGRFTISRDNAINTVYLQMNSLKPEDAAVYYCAALNAFKTGHWYWGQGTQVTVSS	low polyreactivity
QVQLVESGGGLVQAGGSLRLSCAASGGTFRYYTMVWYRQAPGKERELVAAITRGGRTYYADSVKGRFTISRDNAKNTVYIQMNSLKPEDTAVYYCAAVRPRSPVSYENDYWGQGTQVTVSS	high polyreactivity
QVQLVESGGGLVQAGGSLRISCAASGSIFDYYVMGWYRQATGKERELVAAISWSGASTYYADSVKGRCTISRDNAKNTVYLQMNSLKREDTAVYYCAAYYGVNNLIDYDYWGQGTQVTVSS	low polyreactivity

Recorded polyreactivity (PSR sort gate) of `QVQLVESGGGLFQEGGSLRLSCAASGSTFPSYAMGWYRQAPGKERELVAAINSGGGTNYADSVKGRFTISRDNAKNTVYLQMNSLKADDTEVYYCAKSRYDYTKSEGGYWGQGTQVTVSS` , please.
low polyreactivity

// polyreactivity (PSR sort gate) lookup, key: `QVQLVQSVVGLVQAGRRLRLSSAASGRIFFYNAMGWYRHAPGKERELVAGISRSGTSTYYADSVKGRFTISRDNAKNTVYLHMNSLKPEDTAVYYCAAGTFYYWLSYDYWGQGTQVTVSS`
low polyreactivity

What does the record list as polyreactivity (PSR sort gate) for `QVQLVESGGGLVQAGGSLRLSCAASGRTFWGNAMGWYRQAPGKDRELVAAITSGGSTYYADSVKGRFTISRDNAKNTVYLQMNSLKPEDTAVYYCATRRIYKWYRYYYWGQGTQVTVSS` ?
high polyreactivity

Form field: reported polyreactivity (PSR sort gate) of `QVQLVESGGGLVQAGGSLRLSCAASGLIFNYYAMGWYRPAPGKERELVAAIYNGGSTYADSVKGRFTISRDNAKNTVYLQMNSLKPEDTAVYYCNTDDPDRDNDVKSIDYDYWGQGTQVTVSS`
low polyreactivity

What value of polyreactivity (PSR sort gate) has been reported for the following sequence? `QVQLVESGGGLVQAGGILLLSCAASGFIFWYYTMGWYKQAPGKERELVAAINSGGSTNYPDSVKGRFTSSRDNAKNTVYLQMNSLKPEDTAVYYCAALVWYSGELFYYWGQGTQVTVSS`
low polyreactivity

Need polyreactivity (PSR sort gate), item `QVQLVESGGGLVQAGGSLRLSCSASGSTSFYNAIGWYRQAPGKERELVAAISWSTGSTYYADSVKGRFTISRDNAKNTVYLQMTSLKPEDTAVYYCAAETGKNVDFVWVLAYPRLDYWGQGTQVTVSS`
low polyreactivity

I have this sequence here, `QVQLVESGGGLVQAGGSLRLSCAASGSTFRWYAMGWYRQAPGKERELVAAISRSGGNTYYADSVKGRFTISRDNAKNTVYLQMNSLKPEDTAVYYCAARKLYGSPEHGYWGQGTQVTVSS` , and I need its recorded polyreactivity (PSR sort gate).
high polyreactivity

If you can, please state the reported polyreactivity (PSR sort gate) value of `QVQLVESGGGLVQAGGSLRLSCAASGSIIWYYAMVWYRQAPGIERELGAAMTGTGGNTYYADSVKGRFTLSRDNAKNTVYLQMNSLKPEDTAVYYCDVRAYPSYPRGVYAYYYWGHGTQVTVSS` .
high polyreactivity

Item `QVQLVESGGGLVQAGGSLRLSCAASGFIFPVNARGGSRQAPGKERELHADISSDGSTNYADSVKGRFTISRDNAKNTVYLQMNSLKPEDTAVYYCAREDNLRHQSDSRYDYWGQGTQVTVSS` has what recorded polyreactivity (PSR sort gate)?
low polyreactivity
